Cited source for all entries: patent US20260226102A1

- cond: solvent MEK; standing 24 hours or more
Square brackets hold non-standard residues; d marks the D form. Peptide text beside a SMILES is read from it. * marks the point of attachment. Boc = CC(C)(C)OC(=O)*; Aib = CC(C)(N)C(=O)O; OcHex = C1CCC(O*)CC1; OBn = c1ccc(CO*)cc1; tBu = CC(C)(C)*; OAll = C=CCO*
recorded-endpoint: Crystal Formed

* COC(=O)CCC(NC(=O)C(C)(C)NC(=O)C(Cc1ccc(OC(C)(C)C)cc1)NC(=O)OC(C)(C)C)C(=O)NCC(=O)O (stereo not shown) [Boc—Y(tBu)-Aib-E(Me)-G-COOH, Boc-Y(tBu)-Aib-E(Me)-G-COOH] (Boc-Y(tBu)[Aib]E(OMe)G-OH; configuration not given here) | No
* CC(C)(C)OC(=O)NC(Cc1ccc(OC(C)(C)C)cc1)C(=O)NC(C)(C)C(=O)NC(CCC(=O)OC1CCCCC1)C(=O)NCC(=O)O (stereo not shown) [Boc—Y(tBu)-Aib-E(cHx)-G-COOH, Boc-Y(tBu)-Aib-E(cHx)-G-COOH] (Boc-Y(tBu)[Aib]E(OcHex)G-OH; configuration not given here) | No
* CC(C)(C)OC(=O)N[C@@H](Cc1ccc(OC(C)(C)C)cc1)C(=O)NC(C)(C)C(=O)N[C@@H](CCC(=O)OCc1ccccc1)C(=O)NCC(=O)O [Boc—Y(tBu)-Aib-E(Bzl)-G-COOH, Boc-Y(tBu)-Aib-E(Bzl)-G-COOH] (Boc-Y(tBu)[Aib]E(OBn)G-OH) | Yes
* C=CCOC(=O)CCC(NC(=O)C(C)(C)NC(=O)C(Cc1ccc(OC(C)(C)C)cc1)NC(=O)OC(C)(C)C)C(=O)NCC(=O)O (stereo not shown) [Boc—Y(tBu)-Aib-E(All)-G-COOH, Boc-Y(tBu)-Aib-E(All)-G-COOH] (Boc-Y(tBu)[Aib]E(OAll)G-OH; configuration not given here) | Yes
